Target: FBW7/Skp1 (Homo sapiens)
Sequence (Q969H0 whole entry, species assumed, one chain of several): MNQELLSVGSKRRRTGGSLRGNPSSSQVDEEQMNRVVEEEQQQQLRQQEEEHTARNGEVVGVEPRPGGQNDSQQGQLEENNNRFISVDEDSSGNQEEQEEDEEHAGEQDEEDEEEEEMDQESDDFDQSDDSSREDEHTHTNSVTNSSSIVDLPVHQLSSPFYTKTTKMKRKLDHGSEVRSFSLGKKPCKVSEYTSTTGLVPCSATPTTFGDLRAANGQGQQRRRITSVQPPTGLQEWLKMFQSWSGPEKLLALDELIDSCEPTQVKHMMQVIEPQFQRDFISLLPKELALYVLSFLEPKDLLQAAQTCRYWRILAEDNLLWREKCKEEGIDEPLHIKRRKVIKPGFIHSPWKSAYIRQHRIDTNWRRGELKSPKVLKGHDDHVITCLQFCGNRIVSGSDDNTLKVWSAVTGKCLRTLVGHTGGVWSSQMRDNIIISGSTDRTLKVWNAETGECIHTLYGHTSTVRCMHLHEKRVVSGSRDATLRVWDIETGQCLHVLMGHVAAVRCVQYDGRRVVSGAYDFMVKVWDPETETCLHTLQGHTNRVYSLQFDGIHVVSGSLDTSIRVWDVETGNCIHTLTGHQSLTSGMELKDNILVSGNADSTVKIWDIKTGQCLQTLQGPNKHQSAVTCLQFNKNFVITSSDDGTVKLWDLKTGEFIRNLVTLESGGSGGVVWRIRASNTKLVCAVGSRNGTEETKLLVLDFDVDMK
Sequence (Q13616 whole entry partner, species assumed, one chain of several): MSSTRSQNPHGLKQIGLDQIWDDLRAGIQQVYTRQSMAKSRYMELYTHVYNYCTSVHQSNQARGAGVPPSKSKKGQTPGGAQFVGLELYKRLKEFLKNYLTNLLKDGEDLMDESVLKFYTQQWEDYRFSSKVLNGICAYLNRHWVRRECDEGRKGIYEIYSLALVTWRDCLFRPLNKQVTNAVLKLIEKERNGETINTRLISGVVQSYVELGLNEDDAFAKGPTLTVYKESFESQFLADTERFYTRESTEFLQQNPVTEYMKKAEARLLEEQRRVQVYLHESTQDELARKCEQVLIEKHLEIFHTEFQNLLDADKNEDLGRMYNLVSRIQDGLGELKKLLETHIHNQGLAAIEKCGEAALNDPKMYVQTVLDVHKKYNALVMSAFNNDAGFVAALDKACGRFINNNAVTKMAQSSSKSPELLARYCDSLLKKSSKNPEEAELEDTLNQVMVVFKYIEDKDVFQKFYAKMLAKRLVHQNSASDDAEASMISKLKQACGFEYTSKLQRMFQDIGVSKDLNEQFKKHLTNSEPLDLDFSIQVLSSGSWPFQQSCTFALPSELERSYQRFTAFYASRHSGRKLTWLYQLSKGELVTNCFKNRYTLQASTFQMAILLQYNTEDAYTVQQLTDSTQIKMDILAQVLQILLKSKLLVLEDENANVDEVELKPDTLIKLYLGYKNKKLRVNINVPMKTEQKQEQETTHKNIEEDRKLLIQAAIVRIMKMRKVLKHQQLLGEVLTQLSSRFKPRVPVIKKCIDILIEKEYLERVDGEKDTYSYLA
Sequence (P62877 whole entry partner, species assumed, one chain of several): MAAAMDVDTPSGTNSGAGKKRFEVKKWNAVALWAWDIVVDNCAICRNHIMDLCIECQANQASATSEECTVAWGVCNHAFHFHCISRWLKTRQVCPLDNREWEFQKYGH
Assay: Selectivity assay vs other E3s: Fbw7
Type: biochemical
Conditions: 100 μM, value in brackets; read-out: % Inhibition Fbw7 @ (100 μM)
Starred links: 1 amine or outer side, 2 acyl side, 3 side chain; linkers in the order of their positions; H or OH if unused. Non-standard residues stand in square brackets, D forms with d. Residues, ends and D or L forms follow the SMILES beside them. *: point of attachment. Phe(4-NO2) = N[C@@H](Cc1ccc([N+](=O)[O-])cc1)C(=O)O; Benzenesulfonyl(4-OMe) = COc1ccc(S(=O)(=O)*)cc1; Phe(3-F) = N[C@@H](Cc1cccc(F)c1)C(=O)O; 1Nal = N[C@@H](Cc1cccc2ccccc12)C(=O)O; X1 = CCCCOc1ccc(S(=O)(=O)*)cc1; Suc = O=C(CCC(=O)[*:2])[*:1]; Tos = Cc1ccc(S(=O)(=O)*)cc1
Assign True whenever inhibition at 100 µM does not fall below 10%; assign False whenever it does.

>  <compound>
Cc1ccc(S(=O)(=O)N[C@H](CC(=O)O)C(=O)N[C@@H](CCC(=O)O)C(=O)NCC(=O)N[C@@H](Cc2cccc(F)c2)C(=O)N[C@@H](Cc2c[nH]c3ccccc23)C(=O)N[C@@H](CC(=O)O)C(N)=O)cc1 [UBP027, Ts-dEGF(3F)WD-NH2] (Tos-[dD]EG[Phe(3-F)]WD-NH2)

>  <labelClass>
False

$$$$
>  <compound>
NC(=O)[C@H](CCC(=O)O)NC(=O)[C@H](Cc1c[nH]cn1)NC(=O)[C@H](Cc1cccc(F)c1)NC(=O)CNC(=O)[C@H](CCC(=O)O)NC(=O)CCC(=O)O [UBP015, Suc-EGF(3F)HE-NH2] (Suc-EG[Phe(3-F)]HE-NH2)

>  <labelClass>
True

$$$$
>  <compound>
CC(=O)N[C@H](CC(=O)O)C(=O)N[C@@H](CCC(=O)O)C(=O)NCC(=O)N[C@@H](Cc1cccc(F)c1)C(=O)N[C@@H](Cc1c[nH]c2ccccc12)C(=O)N[C@@H](CCC(=O)O)C(N)=O [UBP017, Ac-dEGF(3F)WE-NH2] (Ac-[dD]EG[Phe(3-F)]WE-NH2)

>  <labelClass>
False

$$$$
>  <compound>
NC(=O)[C@H](CCC(=O)O)NC(=O)[C@H](Cc1cccc2ccccc12)NC(=O)[C@H](Cc1ccc([N+](=O)[O-])cc1)NC(=O)CNC(=O)[C@H](CCC(=O)O)NC(=O)CCC(=O)O [UBP011, Suc-EGF(4NO2)1NalE-NH2] (Suc-EG[Phe(4-NO2)][1Nal]E-NH2)

>  <labelClass>
True

$$$$
>  <compound>
COc1ccc(S(=O)(=O)N[C@H](CC(=O)O)C(=O)N[C@@H](CCC(=O)O)C(=O)NCC(=O)N[C@@H](Cc2cccc(F)c2)C(=O)N[C@@H](Cc2c[nH]c3ccccc23)C(=O)N[C@@H](CCC(=O)O)C(N)=O)cc1 [4-(MeO)-PhSO2-dEGF(3F)WE-NH2] ({Benzenesulfonyl(4-OMe)}-[dD]EG[Phe(3-F)]WE-NH2)

>  <labelClass>
True

$$$$
>  <compound>
CCCCOc1ccc(S(=O)(=O)N[C@H](CC(=O)O)C(=O)N[C@@H](CCC(=O)O)C(=O)NCC(=O)N[C@@H](Cc2cccc(F)c2)C(=O)N[C@@H](Cc2c[nH]c3ccccc23)C(=O)N[C@@H](CCC(=O)O)C(N)=O)cc1 [UBP030, 4-(BuO)-PhSO2-dEGF(3F)WE-NH2] (X1-[dD]EG[Phe(3-F)]WE-NH2)

>  <labelClass>
True

$$$$

====

Reported IC50 is given for each of the following compounds.
Biological target: UniProt Q9Y297
Sequence (Q9Y297 whole entry): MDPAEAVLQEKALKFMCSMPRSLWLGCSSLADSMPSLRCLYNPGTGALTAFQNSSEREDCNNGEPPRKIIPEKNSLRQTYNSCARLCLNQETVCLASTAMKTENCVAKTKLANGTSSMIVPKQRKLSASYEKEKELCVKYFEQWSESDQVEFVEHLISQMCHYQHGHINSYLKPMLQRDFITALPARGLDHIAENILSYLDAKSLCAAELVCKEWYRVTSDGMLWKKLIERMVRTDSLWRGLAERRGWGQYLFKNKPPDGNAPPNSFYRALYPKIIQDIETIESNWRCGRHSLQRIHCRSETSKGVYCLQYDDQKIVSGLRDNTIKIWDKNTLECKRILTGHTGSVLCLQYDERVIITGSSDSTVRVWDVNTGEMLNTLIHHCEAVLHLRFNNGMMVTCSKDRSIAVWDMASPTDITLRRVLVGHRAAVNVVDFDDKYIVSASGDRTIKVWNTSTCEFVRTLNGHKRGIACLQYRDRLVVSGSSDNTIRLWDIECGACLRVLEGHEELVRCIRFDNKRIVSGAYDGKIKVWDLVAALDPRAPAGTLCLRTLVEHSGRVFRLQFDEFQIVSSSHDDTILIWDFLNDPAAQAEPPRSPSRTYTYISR
Sequence (P63208 whole entry partner): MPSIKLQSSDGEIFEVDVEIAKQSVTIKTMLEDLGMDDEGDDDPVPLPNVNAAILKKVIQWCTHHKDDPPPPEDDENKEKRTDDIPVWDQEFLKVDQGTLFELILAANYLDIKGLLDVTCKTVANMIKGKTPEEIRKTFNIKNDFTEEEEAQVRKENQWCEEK
Test: Fluorescence polarisation (FP) binding assay with fluorescein-tagged IκB peptide
Details: Tables 1, 3, 7, 8; 10 nM fluorescein-tagged IκB peptide; read-out: FP Assay IC50/μM
Starred links: 1 amine or outer side, 2 acyl side, 3 side chain; linkers in the order of their positions; H or OH if unused. Non-standard residues stand in square brackets, D forms with d. Residues, ends and D or L forms follow the SMILES beside them. *: point of attachment. Phe(3-F) = N[C@@H](Cc1cccc(F)c1)C(=O)O; Phe(4-F) = N[C@@H](Cc1ccc(F)cc1)C(=O)O; 1Nal = N[C@@H](Cc1cccc2ccccc12)C(=O)O; Phe(2-F) = N[C@@H](Cc1ccccc1F)C(=O)O; pS = N[C@@H](COP(=O)(O)O)C(=O)O; X1 = CCCCOc1ccc(S(=O)(=O)*)cc1; Suc = O=C(CCC(=O)[*:2])[*:1]

>  <compound>
CC[C@H](C)[C@H](NC(=O)[C@H](Cc1c[nH]cn1)NC(=O)CNC(=O)[C@H](CO)NC(=O)[C@H](COP(=O)(O)O)NC(=O)[C@H](CC(=O)O)NC(=O)[C@@H](N)CC(C)C)C(=O)N[C@@H](CO)C(N)=O [LD-pS-SGHIS-NH2] (H-LD[pS]SGHIS-NH2)

>  <relationOperator>
>

>  <IC50 [µM]>
100

$$$$
>  <compound>
NC(=O)CC[C@H](NC(=O)CCC(=O)O)C(=O)NCC(=O)N[C@@H](Cc1ccc(O)cc1)C(=O)N[C@@H](Cc1ccccc1)C(=O)N[C@@H](CCC(=O)O)C(N)=O

>  <relationOperator>
=

>  <IC50 [µM]>
10.7

$$$$
>  <compound>
CCCCOc1ccc(S(=O)(=O)N[C@H](CC(=O)O)C(=O)N[C@@H](CCC(=O)O)C(=O)NCC(=O)N[C@@H](Cc2cccc(F)c2)C(=O)N[C@@H](Cc2c[nH]c3ccccc23)C(=O)N[C@@H](CCC(=O)O)C(N)=O)cc1 [UBP030, 4-(BuO)-PhSO2-dEGF(3F)WE-NH2] (X1-[dD]EG[Phe(3-F)]WE-NH2)

>  <relationOperator>
=

>  <IC50 [µM]>
0.056

$$$$
>  <compound>
CC[C@H](C)[C@H](NC(=O)CNC(=O)[C@H](CCC(=O)O)NC(=O)CCC(=O)O)C(=O)N[C@@H](Cc1cccc2ccccc12)C(=O)N[C@@H](CCC(=O)O)C(N)=O [Suc-EGI-1Nal-E-NH2] (Suc-EGI[1Nal]E-NH2)

>  <relationOperator>
=

>  <IC50 [µM]>
15.1

$$$$
>  <compound>
NC(=O)[C@H](Cc1ccc(F)cc1)NC(=O)[C@H](Cc1ccccc1)NC(=O)CNC(=O)[C@H](CCC(=O)O)NC(=O)CCC(=O)O [Suc-EGF-F(4F)-NH2] (Suc-EGF[Phe(4-F)]-NH2)

>  <relationOperator>
>

>  <IC50 [µM]>
100

$$$$
>  <compound>
CC[C@H](C)[C@H](NC(=O)CNC(=O)[C@H](CC(N)=O)NC(=O)[C@H](N)CC(=O)O)C(=O)N[C@@H](Cc1ccccc1)C(=O)N[C@@H](CCCNC(=N)N)C(N)=O [dNGIFR-NH2] (H-[dD]NGIFR-NH2)

>  <relationOperator>
>

>  <IC50 [µM]>
100

$$$$
>  <compound>
CC[C@H](C)[C@H](NC(=O)CNC(=O)[C@H](COP(=O)(O)O)NC(=O)[C@@H](N)CC(=O)O)C(=O)N[C@@H](Cc1c[nH]cn1)C(=O)N[C@@H](CO)C(N)=O [D-pS-GIHS-NH2] (H-D[pS]GIHS-NH2)

>  <relationOperator>
>

>  <IC50 [µM]>
100

$$$$
>  <compound>
COc1ccc(C[C@H](NC(=O)[C@H](Cc2ccccc2F)NC(=O)CNC(=O)[C@H](CCC(=O)O)NC(=O)CCC(=O)O)C(=O)N[C@@H](CCC(=O)O)C(N)=O)cc1 [UBP006, Suc-EGF(2F)Y(Me)E-NH2] (Suc-EG[Phe(2-F)]Y(Me)E-NH2)

>  <relationOperator>
=

>  <IC50 [µM]>
3.2

$$$$

====

Target: FBW7/Skp1 (Homo sapiens)
Assay: Selectivity assay vs other E3s: Fbw7
Format: biochemical
Conditions: read-out: % Inhibition Fbw7 @ 10 μM
Non-standard residues stand in square brackets, D forms with d. Residues, ends and D or L forms follow the SMILES beside them. *: point of attachment. Phe(3-F) = N[C@@H](Cc1cccc(F)c1)C(=O)O; Propionyl = CCC(=O)*; Moc = COC(=O)*

>  <compound>
CCC(=O)N[C@H](CC(=O)O)C(=O)N[C@@H](CCC(=O)O)C(=O)NCC(=O)N[C@@H](Cc1cccc(F)c1)C(=O)N[C@@H](Cc1c[nH]c2ccccc12)C(=O)N[C@@H](CCC(=O)O)C(N)=O [UBP019, Et(CO)-dEGF(3F)WE-NH2] (Propionyl-[dD]EG[Phe(3-F)]WE-NH2)

>  <inhibition at 10 µM>
0%

$$$$
>  <compound>
COC(=O)N[C@H](CC(=O)O)C(=O)N[C@@H](CCC(=O)O)C(=O)NCC(=O)N[C@@H](Cc1cccc(F)c1)C(=O)N[C@@H](Cc1c[nH]c2ccccc12)C(=O)N[C@@H](CCC(=O)O)C(N)=O [UBP020, MeO(CO)-dEGF(3F)WE-NH2] (Moc-[dD]EG[Phe(3-F)]WE-NH2)

>  <inhibition at 10 µM>
6%

$$$$
